system_under_test: human P2Y12 receptor (Homo sapiens, UniProt Q9H244)
Sequence (Q9H244 whole entry): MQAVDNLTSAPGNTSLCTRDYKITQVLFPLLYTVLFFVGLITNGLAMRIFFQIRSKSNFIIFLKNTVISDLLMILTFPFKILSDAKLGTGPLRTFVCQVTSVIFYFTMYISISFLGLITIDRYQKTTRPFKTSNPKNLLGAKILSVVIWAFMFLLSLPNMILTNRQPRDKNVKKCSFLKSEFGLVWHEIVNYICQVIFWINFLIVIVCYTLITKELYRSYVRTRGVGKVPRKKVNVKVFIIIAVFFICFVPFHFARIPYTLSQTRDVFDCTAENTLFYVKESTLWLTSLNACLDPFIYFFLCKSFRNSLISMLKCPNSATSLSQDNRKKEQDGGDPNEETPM
protocol_details: Human P2Y12 recombinant cell membrane binding assay with 33P 2MeS-ADP
run_conditions: competition against 33P 2MeS-ADP, membranes of CHO cells with recombinant human P2Y12 receptor
measured_attribute: IC50 (nM)

Solved cases (10 shown):
- compound: "CCOC(=O)N1CCN(C(=O)[C@H](CCC(=O)OC2CCC2)NC(=O)c2cc(OCC(=O)N3CCC[C@H]3C(=O)NC3CCC3)n(-c3ccccc3)n2)CC1"
  IC50, nM: 54
- compound: "CCOC(=O)N1CCN(C(=O)[C@H](CCC(=O)OCC(C)C)NC(=O)c2cc(OCC(=O)N3CCC[C@H]3C(=O)NC3CCC3)n(-c3ccccc3)n2)CC1"
  IC50, nM: 60
- compound: "CCOC(=O)N1CCN(C(=O)[C@H](CCC(=O)OCOC(=O)C(C)(C)C)NC(=O)c2cc(OCC(=O)N3CCC[C@H]3C(=O)NC3CCC3)n(-c3ccccc3)n2)CC1"
  IC50, nM: 56
- compound: "CCOC(=O)CC[C@H](NC(=O)c1cc(OCC(=O)N2CCC[C@H]2C(=O)NC2CCC2)n(-c2ccccc2)n1)C(=O)N1CCN(C(=O)OCC)CC1"
  IC50, nM: 37
- compound: "CCOC(=O)N1CCN(C(=O)[C@H](CCC(=O)OCC2CCCC2)NC(=O)c2cc(OCC(=O)N3CCC[C@H]3C(=O)NC3CCC3)n(-c3ccccc3)n2)CC1"
  IC50, nM: 83
- compound: "CCCCOC(=O)N1CCN(C(=O)[C@H](COC)NC(=O)c2cc(OCC(=O)N3CCC[C@H]3C(=O)NC3CCC3)n(-c3ccccc3)n2)CC1"
  IC50, nM: 16
- compound: "CCOC(=O)N1CCN(C(=O)[C@H](CCC(=O)O)NC(=O)c2cc(OCC(=O)N3CCC[C@H]3c3ccccc3)n(-c3ccccc3)n2)CC1"
  IC50, nM: 86
- compound: "CCOC(=O)N1CCN(C(=O)[C@H](CC(=O)O)NC(=O)c2cc(OCC(=O)N3CCC[C@H]3C(=O)NCC(F)F)n(-c3ccccc3)n2)CC1"
  IC50, nM: 183
- compound: "CCOC(=O)N1CCN(C(=O)[C@H](CCC(=O)O)NC(=O)c2cc(OCC(=O)N3CCC[C@H]3C(=O)NCC(F)F)n(-c3cccc(F)c3)n2)CC1"
  IC50, nM: 28
- compound: "CCOC(=O)N1CCN(C(=O)[C@H](CCC(=O)O)NC(=O)c2cc(OCC(=O)N3CCC[C@H]3C(=O)NC3CCC3)n(-c3ccc(F)c(F)c3)n2)CC1"
  IC50, nM: 31

(P) CCCCOC(=O)N1CCN(C(=O)[C@H](CCCCO)NC(=O)c2cc(OCC(=O)N3CCC[C@H]3C(=O)NC3CCC3)n(-c3ccccc3)n2)CC1
(Q) CCCCOC(=O)N1CCN(C(=O)CNC(=O)c2cc(OCC(=O)N3C[C@H](O)C[C@H]3C(=O)NC3CCC3)n(-c3ccccc3)n2)CC1
Between the two listed entries P and Q , which has its IC50 at the higher number? Please respond with the label that marks your chosen entry.
Q
